Endpoint: melting point

> print(dat)
                                   compound  experimental.result
1  O=[N+]([O-])c1cn2c(n1)OC(COCc1ccc(OCc3ccccc3)cc1)CC2 (centres unmarked)        151 to 153 °C
2  CC1(COc2ncc(-c3ccc(OC(F)(F)F)cc3)cn2)Cn2cc([N+](=O)[O-])nc2O1 (centres unmarked)        227 °C (dec.)
3  O=[N+]([O-])c1cn2c(n1)OCC(COCc1ccc(-c3ccc(OC(F)(F)F)cc3)cc1)C2 (centres unmarked)        135 to 138 °C
4  O=[N+]([O-])c1cn2c(n1)OC(COc1ccc(OC(F)(F)F)cc1)C2 (centres unmarked)        170 to 172 °C

### Prompt Answer with reported melting point of CC1(COc2ccc(-c3ccc(OC(F)(F)F)cc3)cn2)CCn2cc([N+](=O)[O-])nc2O1 (centres unmarked)
### Response 195 to 198 °C

### Prompt Answer with reported melting point of CC1(COCc2ccc(OCc3ccccc3)cc2)Cn2cc([N+](=O)[O-])nc2O1 (centres unmarked)
### Response 130 to 131 °C

### Prompt Answer with reported melting point of CC1(COc2cnc(-c3ccc(OC(F)(F)F)cc3)cn2)Cn2cc([N+](=O)[O-])nc2O1 (centres unmarked)
### Response 222 to 224 °C

### Prompt Answer with reported melting point of O=[N+]([O-])c1cn2c(n1)OC(COc1ccc(-c3ccc(C(F)(F)F)cc3)cc1)CC2 (centres unmarked)
### Response 242 to 245 °C
